Below, each entry is listed alongside its reported Ki.
target: Coagulation factor X (Homo sapiens, UniProt P00742)
Sequence (P00742 41-179 limits assumed): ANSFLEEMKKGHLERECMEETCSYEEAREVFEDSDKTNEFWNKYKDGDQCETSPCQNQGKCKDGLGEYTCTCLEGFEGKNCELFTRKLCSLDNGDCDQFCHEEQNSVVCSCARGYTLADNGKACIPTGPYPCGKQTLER
Sequence (P00742 235-488 limits assumed): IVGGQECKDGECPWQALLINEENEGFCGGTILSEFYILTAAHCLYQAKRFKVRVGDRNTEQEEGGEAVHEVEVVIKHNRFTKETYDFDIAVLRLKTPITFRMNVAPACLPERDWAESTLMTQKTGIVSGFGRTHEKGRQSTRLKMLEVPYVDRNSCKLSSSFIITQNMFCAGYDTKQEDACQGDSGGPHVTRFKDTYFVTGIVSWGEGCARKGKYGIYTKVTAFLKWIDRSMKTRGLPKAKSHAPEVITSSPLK
// return numeric value only (unit: nM, not printed)

Below: 2 compounds and their reported Ki.
> print(dat)
                                   compound                          target.or.system  value.unit  reported.result
1  CC(=N)N1CCC(Oc2ccc3c(c2)nc(C(C)(C)C)n3Cc2ccc3ccc(C(=N)N)cc3c2)CC1  Coagulation factor X (Homo sapiens, UniProt P00742)          nM                2
2  CC(=N)N1CCC(Oc2ccc3c(c2)nc(C(C)C)n3Cc2ccc3ccc(C(=N)N)cc3c2)CC1  Coagulation factor X (Homo sapiens, UniProt P00742)          nM                2

Asked: GET Ki | system: Coagulation factor X (Homo sapiens, UniProt P00742) | item: CC(=N)N1CCC(Oc2ccc3nc(CCC(=O)O)n(Cc4ccc5ccc(C(=N)N)cc5c4)c3c2)CC1
Given back: 1.3

Asked: GET Ki | system: Coagulation factor X (Homo sapiens, UniProt P00742) | item: CC(=N)N1CCC(N(CC(C)C(=O)O)c2ccc3c(c2)nc(C)n3Cc2ccc3ccc(C(=N)N)cc3c2)CC1 (configuration not stated)
Given back: 80

Asked: GET Ki | system: Coagulation factor X (Homo sapiens, UniProt P00742) | item: CC(=N)N1CCC(N(C(=O)CCC(=O)O)c2ccc3nc(C)n(Cc4ccc5ccc(C(=N)N)cc5c4)c3c2)CC1
Given back: 417

Asked: GET Ki | system: Coagulation factor X (Homo sapiens, UniProt P00742) | item: CC(=N)N1CCC(N(CC(N)=O)c2ccc3nc(C)n(Cc4ccc5ccc(C(=N)N)cc5c4)c3c2)CC1
Given back: 0.46

Asked: GET Ki | system: Coagulation factor X (Homo sapiens, UniProt P00742) | item: CC(=N)N1CCC(Oc2ccc3c(c2)nc(CCC(N)=O)n3Cc2ccc3ccc(C(=N)N)cc3c2)CC1
Given back: 3.6

Asked: GET Ki | system: Coagulation factor X (Homo sapiens, UniProt P00742) | item: CC(=N)N1CCC(Oc2ccc3c(c2)nc(C)n3Cc2ccc3ccc(C(=N)N)cc3c2)CC1
Given back: 6.2

Asked: GET Ki | system: Coagulation factor X (Homo sapiens, UniProt P00742) | item: CC(=N)N1CCC(Oc2ccc3nc(CCC(N)=O)n(Cc4ccc5ccc(C(=N)N)cc5c4)c3c2)CC1
Given back: 1

Asked: GET Ki | system: Coagulation factor X (Homo sapiens, UniProt P00742) | item: CCOC(=O)CCC(=O)N(c1ccc2c(c1)nc(C)n2Cc1ccc2ccc(C(=N)N)cc2c1)C1CCN(C(C)=N)CC1
Given back: 370

Asked: GET Ki | system: Coagulation factor X (Homo sapiens, UniProt P00742) | item: CCC(C)c1nc2cc(OC3CCN(C(C)=N)CC3)ccc2n1Cc1ccc2ccc(C(=N)N)cc2c1 (configuration not stated)
Given back: 3.3

Asked: GET Ki | system: Coagulation factor X (Homo sapiens, UniProt P00742) | item: CCOC(=O)CCC(=O)N(c1ccc2nc(C)n(Cc3ccc4ccc(C(=N)N)cc4c3)c2c1)C1CCN(C(C)=N)CC1
Given back: 300

* * *

target: Serine protease 1 (Bos taurus, UniProt P00760); experiment: In vitro inhibitory activity against bovine cationic trypsin
Measurement Kind: pKi
Friendly reminder that pKi comes from taking -log10 of the concentration in mol/L.

Below: 5 compounds and their reported pKi.
> print(dat)
                           structure.smiles  reported.result
1  CC(=N)N1CCC(Oc2ccc3c(c2)nc(CCC(N)=O)n3Cc2ccc3ccc(C(=N)N)cc3c2)CC1             8.00
2  CCc1nc2ccc(OC3CCN(C(C)=N)CC3)cc2n1Cc1ccc2ccc(C(=N)N)cc2c1             8.11
3  CCCc1nc2ccc(OC3CCN(C(C)=N)CC3)cc2n1Cc1ccc2ccc(C(=N)N)cc2c1             8.17
4  CCOC(=O)CCC(=O)N(c1ccc2c(c1)nc(C)n2Cc1ccc2ccc(C(=N)N)cc2c1)C1CCN(C(C)=N)CC1             6.10
5  COC(=O)CN(c1ccc2c(c1)nc(C)n2Cc1ccc2ccc(C(=N)N)cc2c1)C1CCN(C(C)=N)CC1             8.12

Asked: Report pKi for CCCc1nc2cc(OC3CCN(C(C)=N)CC3)ccc2n1Cc1ccc2ccc(C(=N)N)cc2c1
Given back: 7.80

* * *

Below, each entry is listed alongside its reported log10(Ki).
Target: Serine protease 1 (Bos taurus, UniProt P00760)
Sequence (P00760 whole entry): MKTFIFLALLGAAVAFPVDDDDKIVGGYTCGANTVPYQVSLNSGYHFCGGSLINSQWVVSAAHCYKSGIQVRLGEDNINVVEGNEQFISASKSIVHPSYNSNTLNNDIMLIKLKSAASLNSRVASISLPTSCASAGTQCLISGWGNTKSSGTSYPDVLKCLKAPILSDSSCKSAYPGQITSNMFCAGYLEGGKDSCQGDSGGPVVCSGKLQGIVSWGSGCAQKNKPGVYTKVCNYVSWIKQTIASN
All values: log10 Ki [µM].

> print(dat)
                                   molecule  measurement.kind  reported.result
1  CCOC(=O)CCC(=O)N(c1ccc2nc(C)n(Cc3ccc4ccc(C(=N)N)cc4c3)c2c1)C1CCN(C(C)=N)CC1         log10(Ki)            -0.59
2  CC(=N)N1CCC(N(C(=O)CCC(=O)O)c2ccc3nc(C)n(Cc4ccc5ccc(C(=N)N)cc5c4)c3c2)CC1         log10(Ki)            -0.17

Asked: Report log10(Ki) for CC(=N)N1CCC(Oc2ccc3ncn(Cc4ccc5ccc(C(=N)N)cc5c4)c3c2)CC1
Given back: -1.30

Asked: Report log10(Ki) for CCCCc1nc2cc(OC3CCN(C(C)=N)CC3)ccc2n1Cc1ccc2ccc(C(=N)N)cc2c1
Given back: -1.85

Asked: Report log10(Ki) for CCC(C)c1nc2ccc(OC3CCN(C(C)=N)CC3)cc2n1Cc1ccc2ccc(C(=N)N)cc2c1 (stereo not given)
Given back: -2.00
